target.of.assay: EEF1AKMT4-ECE2 readthrough transcript protein (Homo sapiens)
Sequence (P0DPD8 whole entry): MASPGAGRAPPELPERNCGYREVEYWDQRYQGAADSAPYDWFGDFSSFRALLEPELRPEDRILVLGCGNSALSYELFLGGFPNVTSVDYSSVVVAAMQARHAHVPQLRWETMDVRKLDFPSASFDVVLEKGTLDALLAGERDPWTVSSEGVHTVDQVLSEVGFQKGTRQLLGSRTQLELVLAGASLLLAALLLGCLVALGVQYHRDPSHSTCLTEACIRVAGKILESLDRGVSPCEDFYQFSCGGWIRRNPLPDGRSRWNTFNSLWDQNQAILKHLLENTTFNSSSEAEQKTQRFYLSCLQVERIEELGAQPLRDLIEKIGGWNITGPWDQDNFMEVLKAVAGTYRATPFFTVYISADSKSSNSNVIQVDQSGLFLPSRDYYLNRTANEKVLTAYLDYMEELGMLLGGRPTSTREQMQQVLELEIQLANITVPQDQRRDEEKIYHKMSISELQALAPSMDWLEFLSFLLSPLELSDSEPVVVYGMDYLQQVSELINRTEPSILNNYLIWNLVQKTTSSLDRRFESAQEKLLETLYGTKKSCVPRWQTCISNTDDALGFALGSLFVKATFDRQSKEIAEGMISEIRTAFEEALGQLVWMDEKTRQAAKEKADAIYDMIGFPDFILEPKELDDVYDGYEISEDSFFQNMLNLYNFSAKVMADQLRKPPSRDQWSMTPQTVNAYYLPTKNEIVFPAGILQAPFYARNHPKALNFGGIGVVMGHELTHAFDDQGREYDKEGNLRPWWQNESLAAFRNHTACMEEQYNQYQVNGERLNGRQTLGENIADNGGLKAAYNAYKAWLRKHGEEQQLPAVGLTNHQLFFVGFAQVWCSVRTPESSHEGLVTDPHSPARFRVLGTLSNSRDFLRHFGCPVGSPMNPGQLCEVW
quantity: IC50 (nM)
Numbers only, in nM.

Notebook: pull reported IC50 for EEF1AKMT4-ECE2 readthrough transcript protein (Homo sapiens), entry Cc1[nH]nc(NC(=O)NS(=O)(=O)c2ccc(Cl)cc2)c1C#N
5

====

Task for the reader: assign each of the following compounds its reported IC50.
target.of.assay: Endothelin-converting enzyme 1 (Homo sapiens, UniProt P42892)
Sequence (P42892 whole entry): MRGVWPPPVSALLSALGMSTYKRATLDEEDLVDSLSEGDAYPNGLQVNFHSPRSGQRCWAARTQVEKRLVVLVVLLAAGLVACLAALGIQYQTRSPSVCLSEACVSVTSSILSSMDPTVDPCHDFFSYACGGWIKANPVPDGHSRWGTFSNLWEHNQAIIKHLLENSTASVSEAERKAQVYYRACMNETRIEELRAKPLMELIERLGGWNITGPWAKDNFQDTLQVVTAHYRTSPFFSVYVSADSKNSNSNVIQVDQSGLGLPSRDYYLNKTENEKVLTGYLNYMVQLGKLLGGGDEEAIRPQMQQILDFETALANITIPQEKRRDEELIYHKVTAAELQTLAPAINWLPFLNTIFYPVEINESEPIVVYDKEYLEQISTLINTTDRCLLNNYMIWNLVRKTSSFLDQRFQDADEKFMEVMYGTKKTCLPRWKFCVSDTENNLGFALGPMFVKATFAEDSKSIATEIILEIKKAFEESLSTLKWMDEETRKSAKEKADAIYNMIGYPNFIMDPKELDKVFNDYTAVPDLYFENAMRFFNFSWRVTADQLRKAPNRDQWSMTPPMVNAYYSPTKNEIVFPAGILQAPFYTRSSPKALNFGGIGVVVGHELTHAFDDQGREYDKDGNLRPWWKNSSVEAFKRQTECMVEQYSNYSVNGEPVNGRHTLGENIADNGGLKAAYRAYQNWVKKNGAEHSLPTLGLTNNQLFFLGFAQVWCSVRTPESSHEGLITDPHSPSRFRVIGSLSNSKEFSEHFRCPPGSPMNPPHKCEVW
procedure.summary: Enzyme Activity Assay
condition.context: pH 5.5

> print(dat)
                                   compound  quantity    result
1  Cc1[nH]nc(NC(=O)NS(=O)(=O)c2ccc(Cl)cc2)c1C#N [SM19712]      IC50  > 100 µM

// switching to the query compound
Given the compound Oc1ccccc1/C=C\c1ccc2ccccc2n1 [2-(2-(quinolin-2-yl)vinyl)phenol] , what is its reported IC50?
> 100 µM
